FYI, the data here is from patent US6825176B2.

# SYSTEM_NAME: transactivation domain of HPV11 E2 (TAD) (Human papillomavirus 11)
# Construct: HPV11 E2 amino acids 2* -215 (*Met-1 removed); made in house; host or cells: E. coli BL21 (DE3)pLysS, plasmid pET23a(+)
# PROTOCOL: HPV E2 transactivation domain (TAD) ligand displacement assay
# Format: binding
# CONDITION_DETAILS: standard inhibitor, racemic mixture
MEASUREMENT_LABEL: IC50

Request: Could you tell me which IC50 is on file for O=C(Nc1ccc2c(c1)OCO2)C1C(c2ccc(Cl)cc2)OC2(C(=O)c3ccccc3C2=O)C1C(=O)O (racemic) [Compound 3h] ?
Response: ~10 µM

###

# SYSTEM_NAME: transactivation domain of HPV11 E2 (TAD) (Human papillomavirus 11, UniProt P04015)
# Sequence (P04015 2-215): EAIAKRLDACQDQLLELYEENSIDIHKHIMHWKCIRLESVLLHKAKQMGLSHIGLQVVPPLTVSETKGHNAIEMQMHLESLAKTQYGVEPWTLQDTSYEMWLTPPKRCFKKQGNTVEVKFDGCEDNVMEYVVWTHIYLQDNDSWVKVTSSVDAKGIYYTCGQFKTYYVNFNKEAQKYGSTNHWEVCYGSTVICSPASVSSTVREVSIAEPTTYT
MEASUREMENT_LABEL: pKd
Entry type: numeric. Quantity: pKd, the -log10 of concentration in molar units.

Request: Provide value of pKd for this record tested with transactivation domain of HPV11 E2 (TAD) (Human papillomavirus 11, UniProt P04015): "CC(=O)NCc1ccc(N2C(=O)[C@H]3[C@@H](C2=O)[C@@]2(O[C@H]3c3ccc(Br)c(Br)c3)C(=O)c3cc(C)sc3C2=O)cc1"
Response: 7.40
